These measurements were taken from patent US8658791B2.

Give pest or weed control at 140 g/ha for every item shown.
Tested on: wild poinsettia (Euphorbia heterophylla)
testName: General postemergence herbicidal activity, EPHHL
Assay type: in vivo
experimentalContext: Euphorbia heterophylla, post-emergence, 336 h; 140 g ai/ha, postemergence spray, visual score after 14 days, 0 = no injury, 100 = complete kill; read-out: Post-emergent Weed Control EPHHL
Text: Seeds or nutlets of the desired test plant species were planted in Sun Gro MetroMix® 306 planting mixture, which typically has a pH of 6.0 to 6.8 and an organic matter content of about 30 percent, in plastic pots with a surface area of 103 square centimeters. When required to ensure good germination and healthy plants, a fungicide treatment and/or other chemical or physical treatment was applied. […]
Just the number in %, nothing appended.

Report pest or weed control at 140 g/ha for C=Cc1c(N)nc(-c2cc(F)c(Cl)cc2F)nc1C(=O)OC please.
50

Try C=Cc1c(N)nc(C2CC2)nc1C(=O)O next.
100

Try C#Cc1c(N)nc(-c2ccc(Cl)c(OC)c2F)nc1C(=O)O next.
90

Try C=C(F)c1c(N)nc(-c2ccc(Cl)c(OC)c2F)nc1C(=O)OC next.
100

Try C=Cc1c(N)nc(-c2ccc(Cl)c(OC)c2Cl)nc1C(=O)OC next.
40

Try C=Cc1c(C(=O)O)nc(-c2ccc(Cl)cc2)c(F)c1N next.
95

Try COC(=O)c1nc(-c2ccc(Cl)c(OC)c2F)nc(N)c1C(C)F (stereo not shown) next.
85

Try C=Cc1c(N)nc(-c2ccc(Cl)c(N(C)C)c2F)nc1C(=O)O next.
90

Try C=Cc1c(N)nc(-c2ccc(Cl)c(OC)c2F)nc1C(=O)OCCCC next.
100

Try C=Cc1c(N)nc(-c2ccc(Cl)c(F)c2)nc1C(=O)O next.
100

---

System: wild poinsettia (Euphorbia heterophylla)
testName: General postemergence herbicidal activity, EPHHL
Type: in vivo
experimentalContext: Euphorbia heterophylla, post-emergence, 336 h; 140 g ai/ha, postemergence spray, visual score after 14 days, 0 = no injury, 100 = complete kill; read-out: Post-emergent Weed Control EPHHL
quantityKind: pest or weed control at 140 g/ha (%)
Just the number in %, nothing appended.

Report pest or weed control at 140 g/ha for C=Cc1c(N)nc(-c2ccc(Cl)cc2F)nc1C(=O)OC please.
100

Try C#Cc1c(N)cc(-c2ccc(Cl)c(OC)c2F)nc1C(=O)OC next.
100

Try CCc1c(N)nc(-c2ccc(Cl)c(OC)c2F)nc1C(=O)OC next.
100

Try C#Cc1c(N)nc(-c2ccc(Cl)c(OC)c2F)nc1C(=O)OC next.
85

Try C=C(F)c1c(N)nc(-c2ccc(Cl)c(OC)c2F)nc1C(=O)O next.
100

Try C=Cc1c(C(=O)OC)nc(-c2ccc(Cl)cc2)c(F)c1N next.
90

Try C=Cc1c(N)cc(-c2ccc(Cl)c(OC)c2F)nc1C(=O)O next.
100

Try C=Cc1c(N)nc(-c2ccc(Cl)c(C(F)F)c2F)nc1C(=O)OC next.
100

Try C=Cc1c(N)nc(-c2ccc(Cl)c(F)c2)nc1C(=O)OC next.
80

---

System: rice (Oryza sativa)
testName: General preemergence herbicidal activity, ORYSA
Type: in vivo
experimentalContext: 140 g ai/ha, applied to soil surface, visual score after 20-22 days, 0 = no injury, 100 = complete kill or no emergence, read-out: Pre-emergent Weed Control ORYSA
Give plant injury at 140 g/ha for every item shown.
Just the number in %, nothing appended.

Report plant injury at 140 g/ha for C=Cc1c(N)nc(-c2ccc(Cl)cc2)nc1C(=O)O [Compound 43] please.
90

Try C=Cc1c(N)nc(-c2ccc(Cl)c(OC)c2F)nc1C(=O)OC [Compound 3] next.
30

Try COC(=O)c1nc(-c2ccc(Cl)c(OC)c2F)nc(N)c1C [Compound 2] next.
15

Try C=Cc1c(N)nc(-c2ccc(Cl)cc2F)nc1C(=O)O [Compound 42] next.
10

Try CCc1c(N)nc(-c2ccc(Cl)c(OC)c2F)nc1C(=O)OC [Compound 21] next.
0

Try COc1c(Cl)ccc(-c2nc(N)c(C)c(C(=O)O)n2)c1F [Compound 53] next.
0

Try C/C=C\c1c(N)nc(-c2ccc(Cl)c(OC)c2F)nc1C(=O)O [Compound 55] next.
30

Try C=Cc1c(N)cc(-c2ccc(Cl)c(OC)c2F)nc1C(=O)OC [Compound 28] next.
20

---

Test system: barnyardgrass (Echinochloa crus-galli)
testName: General postemergence herbicidal activity, ECHCG
Assay type: in vivo
experimentalContext: Echinochloa crus-galli, post-emergence, 336 h, 280 g ai/ha, postemergence spray, visual score after 14 days, 0 = no injury, 100 = complete kill; read-out: Post-emergent Weed Control ECHCG
quantityKind: pest or weed control at 280 g/ha

Test system barnyardgrass (Echinochloa crus-galli); read-out pest or weed control at 280 g/ha; what value for COC(=O)c1nc(-c2ccc(Cl)cc2)c(F)c(N)c1C [Compound 25] ?
0%

Try C=Cc1c(N)nc(-c2ccc(Cl)c(OC(F)F)c2F)nc1C(=O)O [Compound 50] next.
100%

Try COC(=O)c1nc(-c2ccc(Cl)c(OC)c2F)cc(N)c1C [Compound 27] next.
0%

Try COC(=O)c1nc(-c2ccc(Cl)c(OC)c2F)nc(N)c1C [Compound 2] next.
95%

Try C=Cc1c(N)nc(-c2ccc(Cl)c(C(C)F)c2)nc1C(=O)OC (stereo not shown) [Compound 20] next.
70%

Try COc1c(Cl)ccc(-c2cc(N)c(C)c(C(=O)O)n2)c1F [Compound 58] next.
50%

Try C=Cc1c(N)cc(-c2ccc(Cl)cc2F)nc1C(=O)OC [Compound 29] next.
0%

---

Give pest or weed control at 140 g/ha for every item shown.
Test system: wild poinsettia (Euphorbia heterophylla)
testName: General preemergence herbicidal activity, EPHHL
Assay type: in vivo
experimentalContext: 140 g ai/ha, applied to soil surface, visual score after 20-22 days, 0 = no injury, 100 = complete kill or no emergence, read-out: Pre-emergent Weed Control EPHHL

Report pest or weed control at 140 g/ha for C=Cc1c(N)nc(-c2ccc(Cl)cc2)nc1C(=O)O [Compound 43] please.
100%

Try C=Cc1c(N)nc(-c2ccc(Cl)cc2F)nc1C(=O)OC [Compound 5] next.
90%

Try C=Cc1c(N)nc(-c2ccc(Cl)c(OC)c2F)nc1C(=O)OC [Compound 3] next.
100%

---

Test system: rice (Oryza sativa)
testName: General preemergence herbicidal activity, ORYSA
Type: in vivo
experimentalContext: 140 g ai/ha, applied to soil surface, visual score after 20-22 days, 0 = no injury, 100 = complete kill or no emergence, read-out: Pre-emergent Weed Control ORYSA
Give plant injury at 140 g/ha for every item shown.
Just the number in %, nothing appended.

Report plant injury at 140 g/ha for C=Cc1c(N)nc(-c2ccc(Cl)c(C(C)F)c2F)nc1C(=O)OC (centres unmarked) please.
95

Try C=Cc1c(N)nc(-c2ccc(Cl)cc2F)nc1C(=O)OC next.
10

Try CCOC(=O)c1nc(C2CC2)nc(N)c1C next.
30

Try C=Cc1c(N)nc(-c2ccc(Cl)c(OC)c2)nc1C(=O)O next.
30

Try C=Cc1c(N)cc(-c2ccc(Cl)c(OC)c2F)nc1C(=O)O next.
0

---

Give pest or weed control at 140 g/ha for every item shown.
Tested on: wild poinsettia (Euphorbia heterophylla)
testName: General preemergence herbicidal activity, EPHHL
Format: in vivo
experimentalContext: 140 g ai/ha, applied to soil surface, visual score after 20-22 days, 0 = no injury, 100 = complete kill or no emergence, read-out: Pre-emergent Weed Control EPHHL
Just the number in %, nothing appended.

Report pest or weed control at 140 g/ha for C/C=C\c1c(N)nc(-c2ccc(Cl)c(OC)c2F)nc1C(=O)O [Compound 55] please.
100

Try C=Cc1c(N)cc(-c2ccc(Cl)c(OC)c2F)nc1C(=O)OC [Compound 28] next.
100

Try CCc1c(N)nc(-c2ccc(Cl)c(OC)c2F)nc1C(=O)OC [Compound 21] next.
80

Try C=Cc1c(N)nc(-c2ccc(Cl)c(OC)c2)nc1C(=O)O [Compound 45] next.
0

Try COC(=O)c1nc(-c2ccc(Cl)c(OC)c2F)nc(N)c1C [Compound 2] next.
95

Try CCOC(=O)c1nc(C2CC2)nc(N)c1C [Compound 1] next.
100

Try C=Cc1c(N)nc(-c2ccc(Cl)cc2F)nc1C(=O)O [Compound 42] next.
100

Try C=Cc1c(N)cc(-c2ccc(Cl)c(OC)c2F)nc1C(=O)O [Compound 59] next.
100

Try C=Cc1c(N)nc(-c2ccc(Cl)c(C(C)F)c2F)nc1C(=O)OC (stereo not shown) [Compound 14] next.
100

Try COc1c(Cl)ccc(-c2nc(N)c(C)c(C(=O)O)n2)c1F [Compound 53] next.
100
